# assay-target: T1, human TL1A extracellular domain with N-terminal HIS and FLAG tag (human, UniProt O95150 72-251)
# T1 construct: the whole entry is named; also called TNFSF15
# T1 sequence: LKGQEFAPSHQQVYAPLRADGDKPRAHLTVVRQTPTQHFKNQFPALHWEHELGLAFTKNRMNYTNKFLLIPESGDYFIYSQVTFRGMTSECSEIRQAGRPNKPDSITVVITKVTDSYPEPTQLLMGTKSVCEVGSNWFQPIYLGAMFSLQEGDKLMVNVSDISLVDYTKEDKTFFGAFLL
# assay-explanation: SPR Run 7, antibody on Protein A, TL1A 5 ug/mL, timepoint 220
reported-metric: TL1A Binding Level (Late) (RU)
Report the figure in RU without appending any unit label.

{"columns": ["binder", "TL1A Binding Level (Late), RU"],
 "data": [
  ["320-552 (antibody, human IgG1, name in Kabat numbering, V domains shown, full-length human IgG1, lambda) VH: QVQLVQSGAEVKKPGASVKVSCKASGYTFTSYDINWVRQAPGQGLEWMGWLNPNSGNHGYAQKFQGRVTMTADRSTSTAYMELSSLRSEDTAVYYCAREVPETAAFEYWGQGTLVTVSS VL: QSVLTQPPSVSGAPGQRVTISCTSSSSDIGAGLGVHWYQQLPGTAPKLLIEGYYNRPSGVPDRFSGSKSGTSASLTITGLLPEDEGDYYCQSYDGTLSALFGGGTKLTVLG", 97]
]}

Ask: For 320-575 (antibody, human IgG1, name in Kabat numbering, V domains shown, full-length human IgG1, lambda) VH: QVQLVQSGAEVKKPGASVKVSCKASGYTFTSYDINWVRQAPGQGLEWMGWLNPNSGNTGYHQKFQGRVTMTADRSTSTAYMELSSLRSEDTAVYYCAREVPETAAFEYWGQGTLVTVSS VL: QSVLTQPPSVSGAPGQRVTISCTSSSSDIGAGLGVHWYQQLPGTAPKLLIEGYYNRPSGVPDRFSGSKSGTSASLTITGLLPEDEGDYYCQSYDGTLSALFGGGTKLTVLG , what is its reported TL1A Binding Level (Late)?
Reply: 110
